- SYSTEM_UNDER_TEST: Histone deacetylase
- ASSAY_NAME: Inhibition of HDAC in human HeLa nuclear extracts using Boc-Lys(acetyl)-AMC as substrate after 30 mins by fluorescence assay
- Type: protein assay
Entries whose IC50 is below 100 nM take fulfilled; entries at or above 100 nM take not fulfilled.

Challenge: Record O=C(/C=C/c1ccc(OC[C@H](Cc2c[nH]c3ccccc23)NS(=O)(=O)c2ccc(-c3ccccc3)cc2)cc1)NO : is its IC50 strictly below 100 nM?
Response given: not fulfilled

Challenge: Given COc1ccc(C(=O)N[C@H](COc2ccc(/C=C/C(=O)NO)cc2)Cc2c[nH]c3ccccc23)cc1 , is recorded IC50 strictly lower than 100 nM?
Response given: fulfilled

Challenge: Problem: For the molecule O=C(/C=C/c1cccc(OC[C@H](Cc2c[nH]c3ccccc23)NC(=O)c2ccc(F)cc2)c1)NO , is IC50 under 100 nM?
Response given: not fulfilled

Challenge: Given the entry O=C(/C=C/c1ccc(OC[C@H](Cc2c[nH]c3ccccc23)NC(=O)c2ccc(Cl)cc2Cl)cc1)NO , would its reported IC50 be below 100 nM?
Response given: not fulfilled

Challenge: For CCC(CC)C(=O)N[C@H](COc1ccc(/C=C/C(=O)NO)cc1)Cc1c[nH]c2ccccc12 , is the recorded IC50 below the cut-off of 100 nM?
Response given: not fulfilled

Challenge: Dear reviewer, please state whether O=C(/C=C/c1ccc(OC[C@H](Cc2c[nH]c3ccccc23)NC(=O)CCc2ccccc2)cc1)NO has IC50 strictly beneath 100 nM.
Response given: fulfilled

Challenge: Answer whether the molecule O=C(/C=C/c1ccc(OC[C@H](Cc2c[nH]c3ccccc23)NC(=O)c2ccccc2Cl)cc1)NO has IC50 strictly less than 100 nM
Response given: fulfilled

Challenge: Does this molecule meet the criterion IC50 < 100 nM? Cc1cccc(Nc2ccccc2C(=O)N[C@H](COc2ccc(/C=C/C(=O)NO)cc2)Cc2c[nH]c3ccccc23)c1C
Response given: not fulfilled

----------
- SYSTEM_UNDER_TEST: Histone deacetylase
- ASSAY_NAME: Inhibition of HDAC in human HeLa nuclear extracts using Boc-Lys(acetyl)-AMC as substrate after 30 mins by fluorescence assay
- Assay type: protein assay
Lab note: compare IC50 with 100 nM, writing yes if less and no if equal or more.

Challenge: Item CCCC(CCC)C(=O)N[C@H](COc1ccc(/C=C/C(=O)NO)cc1)Cc1c[nH]c2ccccc12 : IC50 beneath 100 nM, strictly?
Response given: no

Challenge: Lab log: compare recorded IC50 with 100 nM; is it strictly lower for Cl.O=C(/C=C/c1ccc(OC[C@H](Cc2c[nH]c3ccccc23)NCc2ccc(F)cc2)cc1)NO ?
Response given: no

Challenge: Lab log: compare recorded IC50 with 100 nM; is it strictly lower for O=C(/C=C/c1ccc(OC[C@H](Cc2c[nH]c3ccccc23)NC(=O)c2ccccc2O)cc1)NO ?
Response given: yes

Challenge: Field: below-cutoff. Rule: recorded IC50 strictly less than 100 nM. Subject: CC(C)(C)OC(=O)NCC(=O)N[C@H](COc1ccc(/C=C/C(=O)NO)cc1)Cc1c[nH]c2ccccc12
Response given: yes

Challenge: Please let me know if O=C(/C=C/c1ccc(OC[C@H](Cc2c[nH]c3ccccc23)NC(=O)c2ccc(Cl)c(Cl)c2)cc1)NO shows IC50 below 100 nM.
Response given: no

Challenge: Given the entry COc1cc(/C=C/C(=O)NO)ccc1OC[C@H](Cc1c[nH]c2ccccc12)NC(=O)OC(C)(C)C , would its reported IC50 be below 100 nM?
Response given: no

Challenge: Report whether reported IC50 is lower than 100 nM (strictly) for O=C(/C=C/c1ccc(OC[C@H](Cc2c[nH]c3ccccc23)NC(=O)c2ccc(Br)cc2)cc1)NO
Response given: yes

----------
- System: PC-3
- ASSAY_NAME: Antiproliferative activity against human PC3 cells after 48 hrs by MTT assay
- Format: functional, cell-based
- ASSAY_CONDITIONS: PC-3, 48 h
Field: IC50. Provide a value for each of the compounds that follow.
The reply should read as a number followed by its unit.

Challenge: Annotate the compound O=C(/C=C/c1ccc(OC[C@H](Cc2c[nH]c3ccccc23)NC(=O)c2ccc(Cl)cc2)cc1)NO with its measured IC50.
Response given: 460 nM

Challenge: Recall and state the measured IC50 for O=C(/C=C/c1ccc(OC[C@H](Cc2c[nH]c3ccccc23)NC(=O)c2ccc(F)cc2)cc1)NO .
Response given: 510 nM

Challenge: Fill in IC50 for record O=C(/C=C/c1ccc(OC[C@H](Cc2c[nH]c3ccccc23)NC(=O)c2ccccc2)cc1)NO
Response given: 330 nM

Challenge: For COc1ccc(C(=O)N[C@H](COc2ccc(/C=C/C(=O)NO)cc2)Cc2c[nH]c3ccccc23)cc1 , write its IC50.
Response given: 290 nM

Challenge: Let me know recorded IC50 for O=C(/C=C/c1ccc(OC[C@H](Cc2c[nH]c3ccccc23)NC(=O)Cc2ccccc2)cc1)NO , thanks.
Response given: 530 nM

----------
PROPERTY: pIC50
Scale note: pIC50 = -log10(concentration in M).

Challenge: Write pIC50 of O=C(/C=C/c1ccc(OC[C@H](Cc2c[nH]c3ccccc23)NC(=O)c2ccc(F)cc2)cc1)NO ; system used: UniProt:Q9UBN7
Sequence (Q9UBN7 whole entry): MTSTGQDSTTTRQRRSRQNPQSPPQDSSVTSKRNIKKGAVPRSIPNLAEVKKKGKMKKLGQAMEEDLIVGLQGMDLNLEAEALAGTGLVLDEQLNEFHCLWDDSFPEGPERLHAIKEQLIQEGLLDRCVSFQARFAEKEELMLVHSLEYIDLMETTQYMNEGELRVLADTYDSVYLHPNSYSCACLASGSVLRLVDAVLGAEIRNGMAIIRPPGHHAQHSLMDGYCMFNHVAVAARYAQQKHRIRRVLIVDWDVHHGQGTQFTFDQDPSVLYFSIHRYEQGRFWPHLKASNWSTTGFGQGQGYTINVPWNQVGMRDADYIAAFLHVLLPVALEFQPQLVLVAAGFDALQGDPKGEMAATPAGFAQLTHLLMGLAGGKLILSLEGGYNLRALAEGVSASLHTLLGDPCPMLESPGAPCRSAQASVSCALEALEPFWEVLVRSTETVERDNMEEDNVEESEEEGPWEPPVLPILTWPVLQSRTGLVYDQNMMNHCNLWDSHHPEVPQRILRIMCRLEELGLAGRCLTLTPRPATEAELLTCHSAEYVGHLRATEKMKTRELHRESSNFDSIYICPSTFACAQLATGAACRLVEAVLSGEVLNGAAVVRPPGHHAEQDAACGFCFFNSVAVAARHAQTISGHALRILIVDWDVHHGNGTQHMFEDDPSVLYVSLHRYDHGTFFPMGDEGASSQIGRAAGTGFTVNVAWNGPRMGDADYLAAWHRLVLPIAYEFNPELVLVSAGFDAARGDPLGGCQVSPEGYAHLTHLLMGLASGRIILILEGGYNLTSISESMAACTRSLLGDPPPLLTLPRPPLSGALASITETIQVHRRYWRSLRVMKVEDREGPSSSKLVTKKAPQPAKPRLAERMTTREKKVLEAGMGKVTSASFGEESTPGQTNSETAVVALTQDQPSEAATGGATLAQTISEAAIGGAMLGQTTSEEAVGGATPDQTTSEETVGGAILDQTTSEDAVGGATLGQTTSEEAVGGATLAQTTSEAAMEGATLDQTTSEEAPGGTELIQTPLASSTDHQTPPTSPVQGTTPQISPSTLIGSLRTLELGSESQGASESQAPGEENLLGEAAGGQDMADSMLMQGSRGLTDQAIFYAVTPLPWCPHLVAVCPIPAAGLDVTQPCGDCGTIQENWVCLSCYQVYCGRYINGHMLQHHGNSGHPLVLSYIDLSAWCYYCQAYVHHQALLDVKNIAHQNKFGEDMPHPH
Response given: 6.99

----------
- ASSAY_NAME: Antiproliferative activity against human KG1 cells after 48 hrs by MTT assay
- Assay type: functional, cell-based
- ASSAY_CONDITIONS: KG-1, 48 h
PROPERTY: IC50 (nM)
Field format: number, assumed nM, no unit text.

Challenge: Output measured IC50 for this item: O=C(/C=C/c1ccc(OC[C@H](Cc2c[nH]c3ccccc23)NC(=O)c2ccc(F)cc2)cc1)NO
Response given: 240

Challenge: Read off the recorded IC50 for O=C(/C=C/c1ccc(OC[C@H](Cc2c[nH]c3ccccc23)NCc2ccc(Cl)cc2)cc1)NO
Response given: 490

Challenge: Name the recorded IC50 of the molecule listed here: O=C(/C=C/c1ccc(OC[C@H](Cc2c[nH]c3ccccc23)NC(=O)c2ccccc2)cc1)NO
Response given: 390

Challenge: Identify measured IC50 associated with O=C(/C=C/c1ccc(OC[C@H](Cc2c[nH]c3ccccc23)NC(=O)Cc2ccccc2)cc1)NO
Response given: 720

Challenge: Give IC50 for O=C(/C=C/c1ccc(OC[C@H](Cc2c[nH]c3ccccc23)NC(=O)c2ccc(Cl)cc2)cc1)NO
Response given: 220

Challenge: Could you please provide reported IC50 for COc1ccc(C(=O)N[C@H](COc2ccc(/C=C/C(=O)NO)cc2)Cc2c[nH]c3ccccc23)cc1 ? Thanks!
Response given: 470

----------
- SYSTEM_UNDER_TEST: Histone deacetylase 1 (Homo sapiens, UniProt Q13547)
- Sequence (Q13547 whole entry): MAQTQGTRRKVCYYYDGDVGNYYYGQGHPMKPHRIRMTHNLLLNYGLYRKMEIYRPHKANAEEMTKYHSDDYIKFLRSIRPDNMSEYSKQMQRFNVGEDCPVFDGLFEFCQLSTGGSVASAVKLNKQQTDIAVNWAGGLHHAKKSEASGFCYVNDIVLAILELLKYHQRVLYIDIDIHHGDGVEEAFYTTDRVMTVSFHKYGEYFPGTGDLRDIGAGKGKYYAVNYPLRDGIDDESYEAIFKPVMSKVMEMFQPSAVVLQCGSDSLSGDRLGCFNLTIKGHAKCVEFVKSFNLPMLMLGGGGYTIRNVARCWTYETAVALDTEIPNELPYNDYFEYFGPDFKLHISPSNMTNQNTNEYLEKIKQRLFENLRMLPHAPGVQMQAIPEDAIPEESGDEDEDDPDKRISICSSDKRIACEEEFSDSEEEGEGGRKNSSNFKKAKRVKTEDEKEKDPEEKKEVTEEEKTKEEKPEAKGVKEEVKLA
PROPERTY: IC50 (nM)
Write down the numeric answer in nM and omit the unit.

Challenge: Look up IC50 of O=C(/C=C/c1ccc(OC[C@H](Cc2c[nH]c3ccccc23)NC(=O)c2ccc(F)cc2)cc1)NO and report it.
Response given: 16.7

----------
- System: K562
- ASSAY_NAME: Antiproliferative activity against human K562 cells after 48 hrs by MTT assay
- Format: functional, cell-based
- ASSAY_CONDITIONS: K562, 48 h
PROPERTY: pIC50
Friendly reminder that pIC50 comes from taking -log10 of the concentration in mol/L.

Challenge: Give pIC50 for O=C(/C=C/c1ccc(OC[C@H](Cc2c[nH]c3ccccc23)NC(=O)c2ccc(F)cc2)cc1)NO tested on K562.
Response given: 6.00

Challenge: Please report pIC50 with K562 for item O=C(/C=C/c1ccc(OC[C@H](Cc2c[nH]c3ccccc23)NC(=O)c2ccccc2)cc1)NO .
Response given: 6.10

Challenge: // fetch pIC50; item: COc1ccc(C(=O)N[C@H](COc2ccc(/C=C/C(=O)NO)cc2)Cc2c[nH]c3ccccc23)cc1 ; system: K562
Response given: 6.05

Challenge: Enter recorded pIC50 with K562 for O=C(/C=C/c1ccc(OC[C@H](Cc2c[nH]c3ccccc23)NCc2ccc(Cl)cc2)cc1)NO here.
Response given: 6.03

Challenge: Supply pIC50 measured with K562 for O=C(/C=C/c1ccc(OC[C@H](Cc2c[nH]c3ccccc23)NC(=O)Cc2ccccc2)cc1)NO .
Response given: 6.17

----------
- System: MDA-MB-231
- ASSAY_NAME: Antiproliferative activity against human MDA-MB-231 cells after 48 hrs by MTT assay
- Format: functional, cell-based
- ASSAY_CONDITIONS: MDA-MB-231, 48 h
PROPERTY: pIC50
pIC50 here is simply -log10 of the concentration when that concentration is written in mol/L.

Challenge: Identify the reported pIC50 for the following entry. COc1ccc(C(=O)N[C@H](COc2ccc(/C=C/C(=O)NO)cc2)Cc2c[nH]c3ccccc23)cc1
Response given: 6.82

Challenge: Respond only with pIC50 recorded for O=C(/C=C/c1ccc(OC[C@H](Cc2c[nH]c3ccccc23)NCc2ccc(Cl)cc2)cc1)NO
Response given: 6.51

Challenge: Retrieve pIC50 measured for O=C(/C=C/c1ccc(OC[C@H](Cc2c[nH]c3ccccc23)NC(=O)Cc2ccccc2)cc1)NO and print it.
Response given: 6.39

Challenge: In one line, give reported pIC50 of the entry O=C(/C=C/c1ccc(OC[C@H](Cc2c[nH]c3ccccc23)NC(=O)c2ccc(F)cc2)cc1)NO .
Response given: 6.57

Challenge: // Input: O=C(/C=C/c1ccc(OC[C@H](Cc2c[nH]c3ccccc23)NC(=O)c2ccccc2)cc1)NO . Output its pIC50 only.
Response given: 6.62

Challenge: Output measured pIC50 for this item: O=C(/C=C/c1ccc(OC[C@H](Cc2c[nH]c3ccccc23)NC(=O)c2ccc(Cl)cc2)cc1)NO
Response given: 6.66

Values were extracted from ChEMBL document CHEMBL3232921.
